biological target: OR1A1 (Homo sapiens); conditions: stereoisomer not certain
Outcome codes: Yes (active), No (inactive)

CCOC(=O)c1ccccc1	No
O=c1ccc2ccccc2o1	No
CSCSC	No
CC(C)=CCCC(C)=CCO	Yes
CCC(=O)O	No
CC(=O)CC(=O)CC(C)C	Yes
CCCCCCO	No
CCC=CCCCCCC=O	Yes
CCc1ccc(O)c(OC)c1	No
Cc1cccc(C)c1O	No
CSCCC=O	No
CCC=O	No

* * *

target: UniProt Q8VGX3; conditions: stereoisomer not certain
Sequence (Q8VGX3 as listed by the source): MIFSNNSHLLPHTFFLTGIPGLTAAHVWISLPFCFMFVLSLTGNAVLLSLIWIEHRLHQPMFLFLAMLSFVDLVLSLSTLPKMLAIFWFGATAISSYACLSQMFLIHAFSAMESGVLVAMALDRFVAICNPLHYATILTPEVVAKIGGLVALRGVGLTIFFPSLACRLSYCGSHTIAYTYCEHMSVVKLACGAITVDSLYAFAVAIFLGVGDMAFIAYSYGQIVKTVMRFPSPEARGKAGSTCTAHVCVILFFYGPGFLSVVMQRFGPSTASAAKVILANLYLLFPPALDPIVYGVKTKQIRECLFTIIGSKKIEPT
attribute.measured: odorant receptor agonist call

CCCCC(=O)O	inactive
CCCCC(C)=O	inactive
OCCc1ccccc1	inactive
